biological target: Mitogen-activated protein kinase 14 (Homo sapiens, UniProt Q16539); assay: In Vitro Affinity Assay
Sequence (Q16539 whole entry): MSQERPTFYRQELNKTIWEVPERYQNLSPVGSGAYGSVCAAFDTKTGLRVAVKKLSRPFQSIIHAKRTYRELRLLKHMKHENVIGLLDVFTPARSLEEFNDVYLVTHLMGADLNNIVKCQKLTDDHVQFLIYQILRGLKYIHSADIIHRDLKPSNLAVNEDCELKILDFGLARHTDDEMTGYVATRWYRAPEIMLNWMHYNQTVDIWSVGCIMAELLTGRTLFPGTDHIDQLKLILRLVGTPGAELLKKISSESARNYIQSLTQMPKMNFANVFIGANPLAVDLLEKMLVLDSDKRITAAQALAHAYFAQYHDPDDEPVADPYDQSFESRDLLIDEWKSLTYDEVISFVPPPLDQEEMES
Excerpt: Not found
pIC50: −log10 of the molar value.
MEASURED_PROPERTY: pIC50

> print(dat)
                                   molecule                              assay.target   val
1  O=C1NCC(NC2=CC(O)CC=C2)C=C1c1cccc2[nH]ccc12 (stereo not given)  Mitogen-activated protein kinase 14 (Homo sapiens, UniProt Q16539)  5.98
2  O=C1NCC(Nc2ccc(F)cc2)C=C1c1cccc2[nH]ccc12 (stereo not given) [US12351556, Compound 119]  Mitogen-activated protein kinase 14 (Homo sapiens, UniProt Q16539)  5.85
3  O=C1NCC(NC2=CC(Br)CC=C2)C=C1c1cccc2[nH]ccc12 (stereo not given)  Mitogen-activated protein kinase 14 (Homo sapiens, UniProt Q16539)  6.18

1. O=C1NCC(Nc2ccc(F)cc2)C=C1c1cccc2[nH]ccc12 (stereo not given) [US12351556, Compound 120]
2. O=C1NCC(Nc2ccc(Br)cc2)C=C1c1cccc2[nH]ccc12 (stereo not given)
QUERY: Please indicate which has the smaller reported pIC50: 1 , or 2 . Please indicate the selected item by its label.
RESULT: 2

* * *

biological target: Mitogen-activated protein kinase 14 (Homo sapiens, UniProt Q16539); assay: In Vitro Affinity Assay
Source text: Not found
MEASURED_PROPERTY: IC50 (nM)

Please review the entries below; each comes with its answer.
> print(dat)
                                   compound  measured.property  reading.unit   val
1  Cc1ccccc1NC1=CNC(=O)C(c2cccc3[nH]ccc23)C1 (stereo not drawn)               IC50            nM  1060
2  O=C1NCC(Nc2ccccc2F)C=C1c1cccc2[nH]ccc12 (stereo not drawn)               IC50            nM   230
3  COc1ccc(NC2=CNC(=O)C(c3cccc4[nH]ccc34)C2)cc1 (stereo not drawn)               IC50            nM  3670
4  O=C1NCC(Nc2ccccc2Br)C=C1c1cccc2[nH]ccc12 (stereo not drawn)               IC50            nM  2720
5  COc1cccc(NC2=CNC(=O)C(c3cccc4[nH]ccc34)C2)c1 (stereo not drawn)               IC50            nM  5530

I. COc1ccccc1NC1=CNC(=O)C(c2cccc3[nH]ccc23)C1 (stereo not drawn)
II. O=C1NC=C(Nc2ccccc2)CC1c1cccc2[nH]ccc12 (stereo not drawn)
III. O=C1NC=C(Nc2ccccc2)CC1c1ccccc1Br (stereo not drawn)
QUERY: Parameters: sort_field (IC50), sort_dir (desc). Sort the labels as requested; that list is your answer.
RESULT: I, II, III

The origin of these recorded values is BindingDB's records for patent US12351556.
